Sourced from patent US20250115641A1

system-under-test: GST-NLRP3PYD
assay-info: fluorescence anisotropy
Bridge positions count the residues as written; N and C are the ends. Square brackets hold non-standard residues; d marks the D form. Primed or numbered codes have the meaning given here. S5 = C=CCCC[C@](C)(N)C(=O)O; Nle = CCCC[C@H](N)C(=O)O; FITC′ = fluorescein; βAla = NCCC(=O)O
observable: Kd (µM)
Quick reminder: number only, in µM, skip the unit.

{FITC′}-[βAla]Q[S5]LRR[S5]QWKLWTS-NH2 (staple 3-7) [fSAH-POP1-16]
15
{FITC′}-[βAla]Q[S5]LRR[S5]QWKLWTA-NH2 (staple 3-7) [fSAH-POP1-13]
12
XQXLKKXKXKLWTA (N-terminal fluorescein (FITC) on β-alanine; S5 = (S)-2-(4-pentenyl)alanine residues covalently linked (hydrocarbon staple); made on Rink amide resin) [fSAH-POP1-6]
43
{FITC′}-[βAla]Q[S5]LRK[S5]QWKLWTA-NH2 (staple 3-7) [fSAH-POP1-12]
20
AEXLKKXKXKLGTV (N-terminal fluorescein (FITC) on β-alanine; S5 = (S)-2-(4-pentenyl)alanine residues covalently linked (hydrocarbon staple); made on Rink amide resin) [fSAH-POP1-4]
32

Please look up its Kd: AQXLKKXKXKLGTA (N-terminal fluorescein (FITC) on β-alanine; S5 = (S)-2-(4-pentenyl)alanine residues covalently linked (hydrocarbon staple); made on Rink amide resin) [fSAH-POP1-5]
30

Looking for the measured Kd of {FITC′}-[βAla]EELKKFK[Nle]KLGTV-NH2 [fPOP1-H2] , can you help?
27

Endpoint output: Kd of AQXLRKXQXKLWTA (not fully specified; N-terminal fluorescein (FITC) on β-alanine; S5 = (S)-2-(4-pentenyl)alanine residues covalently linked (hydrocarbon staple); norleucine (NL) at the position of M25 of POP1; made on Rink amide resin) [fSAH-POP1-10] . Value?
31
